Target: human CCR2 (Homo sapiens)
Sequence (P41597 1-360 isoform P41597-2): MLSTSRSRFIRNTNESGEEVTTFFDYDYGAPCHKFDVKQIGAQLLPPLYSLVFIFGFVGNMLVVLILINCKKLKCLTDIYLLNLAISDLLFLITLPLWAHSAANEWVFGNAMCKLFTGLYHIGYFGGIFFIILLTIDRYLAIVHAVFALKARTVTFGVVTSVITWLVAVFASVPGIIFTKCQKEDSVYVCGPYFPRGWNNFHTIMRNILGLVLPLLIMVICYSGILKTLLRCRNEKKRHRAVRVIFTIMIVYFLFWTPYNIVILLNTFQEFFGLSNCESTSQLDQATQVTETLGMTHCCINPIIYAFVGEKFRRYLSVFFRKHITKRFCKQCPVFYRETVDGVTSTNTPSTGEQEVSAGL
Assay: Functional Ca2+ release test (B-1)
Settings: Chem-1 cell line transfected with human CCR2; 50% inhibition of the MCP-1 effect, MCP-1 at EC50 (about 5 nM); in some cases means of several determinations
Measurement Kind: IC50 (nM)
Just the number in nM, nothing appended.

Task: For the compound shown here, Cc1cc(-c2nc(C(F)(F)F)c(Oc3ccc(Cl)c(C(F)(F)F)c3)c(=O)[nH]2)no1 , give the reported IC50.
Output: 0.3

Task: For the compound shown here, CC(C)Oc1cnn(-c2nc(C(F)(F)F)c(Oc3ccc(Cl)c(Cl)c3)c(=O)[nH]2)c1 , give the reported IC50.
Output: 4.1

Task: For the compound shown here, CS(=O)(=O)c1cccnc1-c1nc(C(F)(F)F)c(Oc2ccc(Cl)c(C(F)(F)F)c2)c(=O)[nH]1 , give the reported IC50.
Output: 1.8

Task: For the compound shown here, O=c1[nH]c(-c2ccccn2)nc(C(F)(F)F)c1Cc1ccc(Cl)c(Cl)c1 , give the reported IC50.
Output: 3.5

Task: For the compound shown here, Cc1ccc(-c2nc(C(F)(F)F)c(Oc3ccc(Cl)c(Cl)c3)c(=O)[nH]2)nc1C , give the reported IC50.
Output: 14

Task: For the compound shown here, Cn1ncc(-c2nc(C(F)(F)F)c(Oc3ccc(Cl)c(C(F)(F)F)c3)c(=O)[nH]2)c1N , give the reported IC50.
Output: 8.3

Task: For the compound shown here, COc1cc(C)nc(-c2nc(C(F)(F)F)c(Oc3ccc(Cl)c(Cl)c3)c(=O)[nH]2)n1 , give the reported IC50.
Output: 2.9

Task: For the compound shown here, Nc1cnn(-c2nc(C(F)(F)F)c(Cc3ccc(Cl)c(C(F)(F)F)c3)c(=O)[nH]2)c1 , give the reported IC50.
Output: 2.4
